Hey, just so you know, these numbers are from the nanobody polyreactivity screen of Harvey et al. (2022).

measurement.notes: yeast display, Sf9 membrane polyspecificity reagent, FACS + sequencing; frameworks hold sequencing errors

sequence.content	polyreactivity (PSR sort gate)
QVQLVESVGGLVQAGASLRLSCAPSGSTFPVYAMGWYRPAPGKESELVARISSGSSTNYADSVKGRFTISRDNAKITVYLQMNSLKPEDTAVYYCAAQTPRFVWQKGPLDSEDYWGQGTQVTVSS	high polyreactivity
QVQLVESGGGLVQAGGSLRLSCAASGRTFGVYAMGWYRQAPGKERELVPAIRWSGGGTYYADSVKGRFTISRDTAKNTVYVQMNSLKPEDTAVYYCAASFQNSPYTRYTDMYYWGQGTQVTVTS	low polyreactivity
QVQLVESGGGLVQAGGSLRLSCAASGSIFRSYAMGWYRQAPGKERELVASISRRGGSTYYADSVKGRFTISRDNAKNTVYLQMNSLKLEDTAVYYCAAVRYNSRVSTTPSEMYYWGQGTQVTVSS	low polyreactivity
QDQLGESGGGLVQAGGSLRLSCAASGYIFGTYAMGWYRQATGKERELVAAISVGGGSTYYADSVKGRFTISRDNAKHTVYLQMNSLKPEDTAVYYCAAVQLYQKHQITYVAHEYWGQGTQVTVSS	low polyreactivity
QVQLVESGGGLVQAGGSLRLSCAASGRIFPHYTMGWYRQAPGKERELVATISGRGGSTYYADSVKGRFTISRDIAKNTVYLQMNSLKPEDTAVYYCAREGCRRYAGLYYWGQGTQVTVSS	high polyreactivity
